The origin of these recorded values is patent US9925193B2.

# TARGET SYSTEM: SRC (Homo sapiens)
# Sequence (P12931 whole entry): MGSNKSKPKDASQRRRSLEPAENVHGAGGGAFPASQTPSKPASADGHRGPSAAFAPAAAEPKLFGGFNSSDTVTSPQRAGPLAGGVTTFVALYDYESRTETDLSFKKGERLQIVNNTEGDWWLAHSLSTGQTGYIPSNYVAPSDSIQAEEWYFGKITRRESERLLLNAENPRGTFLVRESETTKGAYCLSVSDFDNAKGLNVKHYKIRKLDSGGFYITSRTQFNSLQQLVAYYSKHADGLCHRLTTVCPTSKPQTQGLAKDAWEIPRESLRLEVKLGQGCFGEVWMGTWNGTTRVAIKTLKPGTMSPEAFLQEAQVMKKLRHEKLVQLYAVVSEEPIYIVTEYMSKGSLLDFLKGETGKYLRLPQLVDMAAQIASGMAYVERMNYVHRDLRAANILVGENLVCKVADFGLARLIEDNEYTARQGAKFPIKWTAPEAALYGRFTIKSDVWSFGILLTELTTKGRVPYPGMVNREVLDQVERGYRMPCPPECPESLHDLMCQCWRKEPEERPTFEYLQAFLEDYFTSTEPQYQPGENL
# ASSAY: 33PanQinase Activity Assay, SRC
# CONDITION DESCRIPTION: recombinant human protein kinase, 1 μM [γ-33P]-ATP, 30° C. 80 minutes
ASSAY READOUT: IC50 (nM)

COMPOUND: Fc1ccc(-c2cc3ncnc(Sc4nnc(Cc5ccccc5)o4)c3s2)cc1 [Compound 8l]
TARGET SYSTEM: SRC (Homo sapiens)
ENDPOINT VALUE: 875

A: c1ccc(-c2nc3c(Sc4nnc(-c5ccncc5)o4)ncnc3[nH]2)cc1 [Compound 8s]
B: FC(F)(F)c1ccc(-c2nnc(Sc3ncnc4[nH]c(-c5ccccc5)nc34)o2)cc1 [Compound 8v]
C: c1ccc(-c2nc3c(Sc4nnc(-c5ccco5)o4)ncnc3[nH]2)cc1 [Compound 8u]
D: c1ccc(Cc2nnc(Sc3ncnc4[nH]c(-c5ccccc5)nc34)o2)cc1 [Compound 8t]
E: O=S1(=O)CCC(Cc2nnc(Sc3ncnc4cc(-c5ccc(F)cc5)sc34)o2)C1 (stereo not drawn) [Compound 8k]
Sequence the entries by IC50, beginning with the highest number. Enter labels, ranked according to the request.
D, A, C, E, B
(D: 32000 nM, A: 19000 nM, C: 11000 nM, E: 2620 nM, B: 700 nM)

a: Fc1ccc(-c2cc3ncnc(Sc4nnc(-c5ccc(C(F)(F)F)cc5)o4)c3s2)cc1 [Compound 8e]
b: COc1ccc(-c2cc3ncnc(Sc4nnc(-c5ccc(C(F)(F)F)cc5)o4)c3s2)cc1 [Compound 8o]
c: Fc1ccc(-c2cc3ncnc(Sc4ccccn4)c3s2)cc1 [Compound 8j]
d: COc1ccc(-c2cc3ncnc(Sc4nnc(-c5ccccc5)o4)c3s2)cc1 [Compound 8m]
Put the compounds in ascending order of IC50. Enter labels, ranked according to the request.
d, a, b, c

1: Fc1ccc(-c2cc3ncnc(Sc4ccc(C(F)(F)F)cc4)c3s2)cc1 [Compound 8h]
2: CC(C)(C)c1nnc(Sc2ncnc3cc(-c4ccc(F)cc4)sc23)o1 [Compound 8g]
3: Fc1ccc(-c2cc3ncnc(Sc4ncc[nH]4)c3s2)cc1 [Compound 8i]
Sequence the entries by IC50, beginning with the highest number. Enter labels, ranked according to the request.
3, 2, 1
(3: 11000 nM, 2: 2510 nM, 1: 681 nM)

###

# TARGET SYSTEM: IGF1-R (Homo sapiens)
# Sequence (P08069 31-1367): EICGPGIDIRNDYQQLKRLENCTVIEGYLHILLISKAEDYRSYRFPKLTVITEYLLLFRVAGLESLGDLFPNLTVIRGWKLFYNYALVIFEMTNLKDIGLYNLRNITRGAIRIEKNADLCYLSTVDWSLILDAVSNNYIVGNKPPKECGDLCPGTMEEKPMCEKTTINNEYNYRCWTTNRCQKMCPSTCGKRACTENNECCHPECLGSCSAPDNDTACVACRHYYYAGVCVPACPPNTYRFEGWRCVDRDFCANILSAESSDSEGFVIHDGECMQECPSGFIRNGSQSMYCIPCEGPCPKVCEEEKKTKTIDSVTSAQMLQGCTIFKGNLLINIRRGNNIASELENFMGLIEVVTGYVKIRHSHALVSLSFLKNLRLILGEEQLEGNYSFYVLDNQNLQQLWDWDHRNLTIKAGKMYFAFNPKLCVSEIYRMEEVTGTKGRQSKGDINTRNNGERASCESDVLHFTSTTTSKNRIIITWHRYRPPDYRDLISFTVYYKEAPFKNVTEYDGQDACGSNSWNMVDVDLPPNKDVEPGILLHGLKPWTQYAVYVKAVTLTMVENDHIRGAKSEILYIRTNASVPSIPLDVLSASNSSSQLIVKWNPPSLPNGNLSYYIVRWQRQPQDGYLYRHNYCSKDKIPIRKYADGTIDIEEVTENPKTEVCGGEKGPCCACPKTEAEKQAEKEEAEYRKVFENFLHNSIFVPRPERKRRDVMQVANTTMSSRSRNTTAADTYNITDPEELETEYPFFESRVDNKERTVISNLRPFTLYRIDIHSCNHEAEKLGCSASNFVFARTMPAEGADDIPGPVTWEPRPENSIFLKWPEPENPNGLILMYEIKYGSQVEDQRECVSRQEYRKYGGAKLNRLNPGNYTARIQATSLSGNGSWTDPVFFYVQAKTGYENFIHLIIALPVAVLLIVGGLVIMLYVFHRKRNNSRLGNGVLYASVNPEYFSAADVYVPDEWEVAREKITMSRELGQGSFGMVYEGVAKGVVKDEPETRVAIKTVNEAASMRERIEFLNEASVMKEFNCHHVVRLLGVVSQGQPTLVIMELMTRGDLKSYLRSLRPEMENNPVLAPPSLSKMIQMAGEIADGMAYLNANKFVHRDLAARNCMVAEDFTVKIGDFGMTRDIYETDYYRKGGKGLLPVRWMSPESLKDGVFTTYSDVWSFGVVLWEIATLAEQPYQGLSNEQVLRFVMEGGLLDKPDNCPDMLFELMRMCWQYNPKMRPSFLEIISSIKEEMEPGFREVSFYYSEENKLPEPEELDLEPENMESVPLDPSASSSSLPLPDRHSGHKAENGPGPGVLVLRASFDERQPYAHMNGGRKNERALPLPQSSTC
# ASSAY: 33PanQinase Activity Assay, IGF1-R
# CONDITION DESCRIPTION: recombinant human protein kinase, 1 μM [γ-33P]-ATP, 30° C. 80 minutes
pIC50: −log10 of the molar value.
ASSAY READOUT: pIC50

// known answers, use as guide
COMPOUND: O=S1(=O)CCC(Cc2nnc(Sc3ncnc4cc(-c5ccc(F)cc5)sc34)o2)C1 (centres unmarked) [Compound 8k]
pIC50: 5.12

COMPOUND: Fc1ccc(-c2cc3ncnc(Sc4ccc(C(F)(F)F)cc4)c3s2)cc1 [Compound 8h]
pIC50: 5.86

COMPOUND: Fc1ccc(-c2cc3ncnc(Sc4nnc(-c5ccc(C(F)(F)F)cc5)o4)c3s2)cc1 [Compound 8e]
pIC50: 5.99

A: Fc1ccc(-c2cc3ncnc(Sc4ccccn4)c3s2)cc1 [Compound 8j]
B: Fc1ccc(-c2cc3ncnc(Sc4nnc(Cc5ccccc5)o4)c3s2)cc1 [Compound 8l]
C: CC(C)(C)c1nnc(Sc2ncnc3cc(-c4ccc(F)cc4)sc23)o1 [Compound 8g]
D: Fc1ccc(-c2cc3ncnc(Sc4ncc[nH]4)c3s2)cc1 [Compound 8i]
Sequence the entries by pIC50, beginning with the highest number. Enter labels, ranked according to the request.
B, C, A, D
(B: 5.82, C: 5.48, A: 5.04, D: 4.64)

###

# TARGET SYSTEM: VEGF-R2 (Homo sapiens, UniProt P35968)
# ASSAY: 33PanQinase Activity Assay, VEGF-R2
# CONDITION DESCRIPTION: recombinant human protein kinase, 1 μM [γ-33P]-ATP, 30° C. 80 minutes
pIC50: −log10 of the molar value.
ASSAY READOUT: pIC50

// known answers, use as guide
COMPOUND: COc1cccc(Cc2nnc(Sc3ncnc4cc(-c5ccc(F)cc5)sc34)o2)c1
pIC50: 5.83
//
COMPOUND: Fc1ccc(-c2cc3ncnc(Sc4nnc(-c5ccc(C(F)(F)F)cc5)o4)c3s2)cc1
pIC50: 5.85

A: Fc1ccc(-c2cc3ncnc(Sc4ccc(C(F)(F)F)cc4)c3s2)cc1
B: CC(C)(C)c1nnc(Sc2ncnc3cc(-c4ccc(F)cc4)sc23)o1
Of A and B , which shows the smaller pIC50 value? Answer by quoting the chosen item's label.
B

###

# TARGET SYSTEM: ALK (Homo sapiens)
# Sequence (Q9UM73 19-1620): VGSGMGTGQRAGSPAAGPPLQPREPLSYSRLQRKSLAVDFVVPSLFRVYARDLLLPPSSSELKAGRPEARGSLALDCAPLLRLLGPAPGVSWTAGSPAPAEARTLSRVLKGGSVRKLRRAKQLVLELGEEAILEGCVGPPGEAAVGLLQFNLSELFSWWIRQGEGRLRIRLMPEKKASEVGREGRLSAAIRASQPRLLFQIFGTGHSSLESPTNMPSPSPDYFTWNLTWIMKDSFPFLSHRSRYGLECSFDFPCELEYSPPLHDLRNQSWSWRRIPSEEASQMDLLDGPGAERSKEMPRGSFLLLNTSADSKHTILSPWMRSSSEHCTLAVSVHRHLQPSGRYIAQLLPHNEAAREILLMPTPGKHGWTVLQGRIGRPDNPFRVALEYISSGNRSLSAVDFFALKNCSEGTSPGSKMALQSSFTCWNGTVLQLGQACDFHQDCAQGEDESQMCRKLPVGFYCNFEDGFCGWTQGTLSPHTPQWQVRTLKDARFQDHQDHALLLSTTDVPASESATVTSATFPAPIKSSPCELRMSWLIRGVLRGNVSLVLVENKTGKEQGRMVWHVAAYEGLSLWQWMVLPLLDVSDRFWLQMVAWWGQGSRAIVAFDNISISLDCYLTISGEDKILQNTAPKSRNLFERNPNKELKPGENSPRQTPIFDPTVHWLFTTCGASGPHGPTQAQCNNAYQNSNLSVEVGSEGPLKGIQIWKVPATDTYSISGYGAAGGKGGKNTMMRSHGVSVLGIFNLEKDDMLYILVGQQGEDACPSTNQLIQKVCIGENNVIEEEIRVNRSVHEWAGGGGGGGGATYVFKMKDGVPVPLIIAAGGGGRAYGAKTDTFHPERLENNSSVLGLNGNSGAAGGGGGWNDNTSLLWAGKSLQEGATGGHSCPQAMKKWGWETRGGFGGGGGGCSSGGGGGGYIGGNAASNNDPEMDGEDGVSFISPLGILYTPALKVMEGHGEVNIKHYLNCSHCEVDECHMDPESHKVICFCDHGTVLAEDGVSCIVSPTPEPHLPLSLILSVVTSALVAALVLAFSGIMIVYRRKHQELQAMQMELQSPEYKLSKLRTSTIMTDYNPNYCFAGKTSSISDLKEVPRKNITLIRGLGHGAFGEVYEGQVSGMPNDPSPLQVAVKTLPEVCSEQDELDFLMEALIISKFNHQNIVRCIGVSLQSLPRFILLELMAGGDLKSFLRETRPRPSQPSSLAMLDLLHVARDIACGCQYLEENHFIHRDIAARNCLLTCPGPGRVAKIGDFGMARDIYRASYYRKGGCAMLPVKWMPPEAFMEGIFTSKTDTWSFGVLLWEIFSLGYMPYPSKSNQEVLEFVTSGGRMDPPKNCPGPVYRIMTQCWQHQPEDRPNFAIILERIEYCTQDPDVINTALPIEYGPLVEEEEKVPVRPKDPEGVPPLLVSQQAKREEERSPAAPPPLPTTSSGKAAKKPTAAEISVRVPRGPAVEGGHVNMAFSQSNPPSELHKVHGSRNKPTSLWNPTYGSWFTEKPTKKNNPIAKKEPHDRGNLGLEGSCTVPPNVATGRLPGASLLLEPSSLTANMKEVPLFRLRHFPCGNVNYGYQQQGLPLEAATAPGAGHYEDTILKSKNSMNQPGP
# ASSAY: 33PanQinase Activity Assay, ALK
# CONDITION DESCRIPTION: recombinant human protein kinase, 1 μM [γ-33P]-ATP, 30° C. 80 minutes
pIC50: −log10 of the molar value.
ASSAY READOUT: pIC50

// known answers, use as guide
COMPOUND: Fc1ccc(-c2cc3ncnc(Sc4nnc(-c5ccc6c(c5)OCO6)o4)c3s2)cc1 [Compound 9c]
pIC50: 6.03

COMPOUND: COc1ccc(-c2cc3ncnc(Sc4nnc(-c5ccc(Cl)cc5)o4)c3s2)cc1 [Compound 8n]
pIC50: 6.00

P: COc1ccc(-c2cc3ncnc(Sc4nnc(-c5ccccc5)o4)c3s2)cc1 [Compound 8m]
Q: COCCNc1nnc(Sc2ncnc3cc(-c4ccc(OC)cc4)sc23)s1 [Compound 9f]
Of P and Q , which shows the smaller pIC50 value? Answer by quoting the chosen item's label.
Q

###

# TARGET SYSTEM: UniProt:Q05397
# ASSAY: 33PanQinase Activity Assay, FAK
# CONDITION DESCRIPTION: recombinant human protein kinase, 1 μM [γ-33P]-ATP, 30° C. 80 minutes
ASSAY READOUT: IC50 (µM)

// known answers, use as guide
COMPOUND: Fc1ccc(-c2cc3ncnc(Sc4ncc[nH]4)c3s2)cc1 [Compound 8i]
TARGET SYSTEM: UniProt:Q05397
ENDPOINT VALUE: 22.1
--
COMPOUND: Fc1ccc(-c2cc3ncnc(Sc4nnc(-c5ccc(C(F)(F)F)cc5)o4)c3s2)cc1 [Compound 8e]
TARGET SYSTEM: UniProt:Q05397
ENDPOINT VALUE: 1.96
--
COMPOUND: c1ccc(-c2nc3c(Sc4nnc(-c5ccncc5)o4)ncnc3[nH]2)cc1 [Compound 8s]
TARGET SYSTEM: UniProt:Q05397
ENDPOINT VALUE: 26

1: Fc1ccc(-c2cc3ncnc(Sc4nnc(Cc5ccccc5)o4)c3s2)cc1 [Compound 8l]
2: COCCNc1nnc(Sc2ncnc3cc(-c4ccc(OC)cc4)sc23)s1 [Compound 9f]
Which value of IC50 is numerically greater: that of 1 or that of 2 ? Answer by quoting the chosen item's label.
2

###

# TARGET SYSTEM: FAK (Homo sapiens)
# Sequence (Q05397 whole entry): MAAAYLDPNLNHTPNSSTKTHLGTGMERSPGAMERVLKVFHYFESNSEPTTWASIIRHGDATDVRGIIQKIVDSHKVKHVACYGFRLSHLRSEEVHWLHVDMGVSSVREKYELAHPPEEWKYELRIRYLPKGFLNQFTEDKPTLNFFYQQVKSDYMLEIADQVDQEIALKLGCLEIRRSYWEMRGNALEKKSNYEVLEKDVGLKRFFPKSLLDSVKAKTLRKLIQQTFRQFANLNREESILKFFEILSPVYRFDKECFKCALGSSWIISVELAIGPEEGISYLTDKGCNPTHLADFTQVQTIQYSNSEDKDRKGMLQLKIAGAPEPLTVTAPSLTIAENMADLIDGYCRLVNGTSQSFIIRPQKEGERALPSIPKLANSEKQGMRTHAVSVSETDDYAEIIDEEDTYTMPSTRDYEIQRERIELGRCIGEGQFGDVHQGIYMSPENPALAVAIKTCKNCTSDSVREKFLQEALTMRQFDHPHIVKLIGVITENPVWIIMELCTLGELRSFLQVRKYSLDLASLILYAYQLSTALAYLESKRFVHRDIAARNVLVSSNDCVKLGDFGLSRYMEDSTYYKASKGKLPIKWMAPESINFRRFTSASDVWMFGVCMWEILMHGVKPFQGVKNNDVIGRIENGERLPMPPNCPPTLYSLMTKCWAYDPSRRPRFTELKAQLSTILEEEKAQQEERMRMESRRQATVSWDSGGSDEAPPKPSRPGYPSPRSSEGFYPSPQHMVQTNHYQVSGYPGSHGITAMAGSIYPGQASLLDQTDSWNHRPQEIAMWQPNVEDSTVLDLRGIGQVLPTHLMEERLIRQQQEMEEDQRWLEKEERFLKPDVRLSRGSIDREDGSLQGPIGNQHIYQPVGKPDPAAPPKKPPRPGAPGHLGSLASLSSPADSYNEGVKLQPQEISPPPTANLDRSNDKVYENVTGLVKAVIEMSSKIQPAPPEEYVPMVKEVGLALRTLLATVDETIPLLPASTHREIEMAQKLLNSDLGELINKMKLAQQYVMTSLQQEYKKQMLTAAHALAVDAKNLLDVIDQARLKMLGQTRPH
# ASSAY: 33PanQinase Activity Assay, FAK
# CONDITION DESCRIPTION: recombinant human protein kinase, 1 μM [γ-33P]-ATP, 30° C. 80 minutes
pIC50: −log10 of the molar value.
ASSAY READOUT: pIC50

COMPOUND: COc1ccc(-c2cc3ncnc(Sc4nnc(-c5ccccc5C)o4)c3s2)cc1
pIC50: 5.89

COMPOUND: Fc1ccc(-c2cc3ncnc(Sc4ccc(C(F)(F)F)cc4)c3s2)cc1
pIC50: 5.69

I: COc1ccc(-c2cc3ncnc(Sc4nnc(-c5ccc(Cl)cc5)o4)c3s2)cc1
II: COc1ccc(-c2cc3nc(N)nc(Sc4nnc(-c5ccc(Cl)cc5)o4)c3s2)cc1
Of I and II , which shows the smaller pIC50 value? Answer by quoting the chosen item's label.
I

###

Measured melting point values are reported for all entries that follow.

// known answers, use as guide
COMPOUND: COc1ccc(-c2cc3ncnc(Sc4nnc(-c5ccc(Cl)cc5)o4)c3s2)cc1
ENDPOINT VALUE: 221 to 223 °C

COMPOUND: Fc1ccc(-c2cc3ncnc(Sc4nnc(-c5ccc(C(F)(F)F)cc5)o4)c3s2)cc1
ENDPOINT VALUE: 233 to 235 °C

COMPOUND: CC(C)(C)c1nnc(Sc2ncnc3cc(-c4ccc(F)cc4)sc23)o1
ENDPOINT VALUE: 197 to 199 °C

COMPOUND: c1ccc(Cc2nnc(Sc3ncnc4[nH]c(-c5ccccc5)nc34)o2)cc1
ENDPOINT VALUE: 198 to 199 °C

COMPOUND: COc1ccc(-c2cc3ncnc(Sc4nnc(-c5ccc(Cl)cc5Cl)o4)c3s2)cc1
ENDPOINT VALUE: 213 to 215 °C

COMPOUND: O=S1(=O)CCC(Cc2nnc(Sc3ncnc4cc(-c5ccc(F)cc5)sc34)o2)C1 (centres unmarked)
ENDPOINT VALUE: 180 to 182 °C

Field request: melting point | item: FC(F)(F)c1ccc(-c2nnc(Sc3ncnc4[nH]c(-c5ccccc5)nc34)o2)cc1
256 to 257 °C

Field request: melting point | item: Fc1ccc(-c2cc3ncnc(Sc4nnc(-c5ccccc5)o4)c3s2)cc1
223 °C

Field request: melting point | item: Fc1ccc(-c2cc3ncnc(Sc4ccc(C(F)(F)F)cc4)c3s2)cc1
172 to 175 °C

Field request: melting point | item: c1ccc(-c2nc3c(Sc4nnc(-c5ccncc5)o4)ncnc3[nH]2)cc1
250 to 251 °C

Field request: melting point | item: COc1ccc(-c2cc3nc(N)nc(Sc4nnc(-c5ccc(Cl)cc5)o4)c3s2)cc1
206 to 208 °C
